experimentalDetails: Cytotoxicity against HEK293 cells assessed as growth inhibition after 72 hrs by resazurin dye-based fluorescence assay relative to control
Assay type: cell-based
Design: concentration or dose not given beside the values
testParameters: human, read-out: GI
This listing pairs molecules with measured inhibition at 72 h.
// units = %; emit number, no label

Example cases with answers are listed next.
- CCc1nc(N)nc(N)c1-c1ccc(Cl)cc1: 52
- COc1c(CC=C(C)C)c(O)cc(O)c1C(C)=O: 79.1
- C[C@H]1[C@@H](O)O[C@@H]2O[C@@]3(C)CC[C@H]4[C@H](C)CC[C@@H]1[C@@]24OO3: 41.1
- COc1c(CC=C(C)C)c2c(c(O)c1C(C)=O)[C@H](CC(C)C)[C@H]1C(=O)C(C(C)=O)=C3O[C@@H](C(C)(C)O)C[C@@]3(O)[C@@]1(O)O2: 80.7
- CCN(CC)CCCC(C)Nc1ccnc2cc(Cl)ccc12 (configuration not stated): 53.2
- COc1c(CC=C(C)C)c(O)c(C=O)c(O)c1C(C)=O: 7.4

molecule C[C@H]1[C@H](OC(=O)CCC(=O)O)O[C@@H]2O[C@@]3(C)CC[C@H]4[C@H](C)CC[C@@H]1[C@@]24OO3 [ARTESUNATE] , inhibition at 72 h observed: 62.5
